Let's look at some binders and their measured Fold change (relative to G6.31).
# target.desc: T1, human VEGF (hVEGF) (human, UniProt P15692 181-395)
# T1 construct: also called VEGF-A
# T1 sequence: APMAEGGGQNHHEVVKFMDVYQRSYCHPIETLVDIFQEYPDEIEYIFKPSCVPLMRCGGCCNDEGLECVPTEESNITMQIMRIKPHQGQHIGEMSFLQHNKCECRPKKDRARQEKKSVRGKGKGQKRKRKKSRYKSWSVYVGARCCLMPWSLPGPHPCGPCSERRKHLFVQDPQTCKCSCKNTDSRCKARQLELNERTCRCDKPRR
# protocol.summary: SPR single-cycle;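 further: fab variants injected over hVEGF immobilized on a CM5 chip (Biacore T200), threefold dilution series from 0.02 to 50 nM, kinetics fitted with a 1:1 Langmuir model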
Supply the numeric figure in fold, leaving out any unit text.

Briefly, Fold change (relative to G6.31) measured for G6.31 LC-T72R (Fab, V domains shown, Fab) VH: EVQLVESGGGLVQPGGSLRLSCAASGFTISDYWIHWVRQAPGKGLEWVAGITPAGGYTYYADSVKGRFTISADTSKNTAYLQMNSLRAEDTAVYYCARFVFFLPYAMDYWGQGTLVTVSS VL: DIQMTQSPSSLSASVGDRVTITCRASQDVSTAVAWYQQKPGKAPKLLIYSASFLYSGVPSRFSGSGSGTDFRLTISSLQPEDFATYYCQQGYGNPFTFGQGTKVEIK : 1.1

Briefly, Fold change (relative to G6.31) measured for G6.31 HC-Y58E (Fab, name in Kabat numbering, V domains shown, Fab) VH: EVQLVESGGGLVQPGGSLRLSCAASGFTISDYWIHWVRQAPGKGLEWVAGITPAGGYTEYADSVKGRFTISADTSKNTAYLQMNSLRAEDTAVYYCARFVFFLPYAMDYWGQGTLVTVSS VL: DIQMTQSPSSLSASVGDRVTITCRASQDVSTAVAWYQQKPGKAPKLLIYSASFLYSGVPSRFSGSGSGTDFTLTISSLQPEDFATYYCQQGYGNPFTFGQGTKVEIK : 2.7
